Answer each item with its documented log10 of IC50.
target: Phosphatidylinositol 4,5-bisphosphate 3-kinase catalytic subunit alpha isoform (Homo sapiens, UniProt P42336); test: Inhibition of PI3K expressed in Escherichia coli by microtiter plate-based fluorescence polarization assay
Sequence (P42336 whole entry, canonical isoform): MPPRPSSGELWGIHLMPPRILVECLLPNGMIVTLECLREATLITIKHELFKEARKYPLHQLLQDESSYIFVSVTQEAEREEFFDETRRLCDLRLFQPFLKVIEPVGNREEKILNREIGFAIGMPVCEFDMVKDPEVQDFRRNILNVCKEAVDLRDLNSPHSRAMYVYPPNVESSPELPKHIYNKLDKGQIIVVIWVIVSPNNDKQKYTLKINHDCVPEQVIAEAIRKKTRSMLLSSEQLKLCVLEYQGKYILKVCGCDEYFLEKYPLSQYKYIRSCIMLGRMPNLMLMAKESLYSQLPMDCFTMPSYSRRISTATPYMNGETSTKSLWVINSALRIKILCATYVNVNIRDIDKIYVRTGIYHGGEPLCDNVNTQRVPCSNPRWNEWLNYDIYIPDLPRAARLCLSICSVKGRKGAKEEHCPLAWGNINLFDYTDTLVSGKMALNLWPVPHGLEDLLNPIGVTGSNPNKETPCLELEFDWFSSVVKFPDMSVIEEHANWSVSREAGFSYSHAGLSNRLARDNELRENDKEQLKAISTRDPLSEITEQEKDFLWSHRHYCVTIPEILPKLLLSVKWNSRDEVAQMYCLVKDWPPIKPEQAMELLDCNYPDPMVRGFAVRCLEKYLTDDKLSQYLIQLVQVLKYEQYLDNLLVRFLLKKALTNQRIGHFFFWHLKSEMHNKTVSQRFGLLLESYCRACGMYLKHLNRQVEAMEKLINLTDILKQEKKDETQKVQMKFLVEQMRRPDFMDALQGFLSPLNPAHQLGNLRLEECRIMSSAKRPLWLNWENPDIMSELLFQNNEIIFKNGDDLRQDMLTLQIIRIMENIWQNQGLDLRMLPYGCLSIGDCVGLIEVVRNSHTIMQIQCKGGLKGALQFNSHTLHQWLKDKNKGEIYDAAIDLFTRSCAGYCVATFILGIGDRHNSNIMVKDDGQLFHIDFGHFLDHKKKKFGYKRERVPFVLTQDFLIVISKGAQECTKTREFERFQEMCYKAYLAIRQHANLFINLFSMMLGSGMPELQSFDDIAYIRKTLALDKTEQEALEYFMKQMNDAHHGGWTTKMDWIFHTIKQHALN
Scale: decimal log of IC50, IC50 in nM.

Incoming: Identify log10 of IC50 associated with the compound COC[C@H]1OC(=O)/C(=C/N(CCC#N)Cc2ccccc2)C2=C(O)C(=O)C3=C([C@H](OC(C)=O)C[C@]4(C)[C@@H](O)CC[C@@H]34)[C@]21C
Outgoing: 2.65

Incoming: Identify log10 of IC50 associated with the compound COC[C@H]1OC(=O)/C(=C/N2CCN(CCCN3CCOCC3)CC2)C2=C(O)C(=O)C3=C([C@H](OC(C)=O)C[C@]4(C)[C@@H](O)CC[C@@H]34)[C@]21C
Outgoing: 1.65

Incoming: Identify log10 of IC50 associated with the compound COC[C@H]1OC(=O)/C(=C/N(C)CCCC(=O)O)C2=C(O)C(=O)C3=C([C@H](OC(C)=O)C[C@]4(C)[C@@H](O)CC[C@@H]34)[C@]21C
Outgoing: 2.29

Incoming: Identify log10 of IC50 associated with the compound COC[C@H]1OC(=O)/C(=C/N2CCN(C)CC2)C2=C(O)C(=O)C3=C([C@H](OC(C)=O)C[C@]4(C)[C@@H](O)CC[C@@H]34)[C@]21C
Outgoing: 1.95

Incoming: Identify log10 of IC50 associated with the compound COC[C@H]1OC(=O)/C(=C/N2CCN(Cc3ccccc3)CC2)C2=C(O)C(=O)C3=C([C@H](OC(C)=O)C[C@]4(C)[C@@H](O)CC[C@@H]34)[C@]21C
Outgoing: 1.94

Incoming: Identify log10 of IC50 associated with the compound COC[C@H]1OC(=O)/C(=C/N(C)CC(O)CO)C2=C(O)C(=O)C3=C([C@H](OC(C)=O)C[C@]4(C)[C@@H](O)CC[C@@H]34)[C@]21C (some centres undefined)
Outgoing: 2.30

Incoming: Identify log10 of IC50 associated with the compound COC[C@H]1OC(=O)/C(=C/N(CCN(C)C)Cc2ccccc2)C2=C(O)C(=O)C3=C([C@H](OC(C)=O)C[C@]4(C)[C@@H](O)CC[C@@H]34)[C@]21C
Outgoing: 1.82

Incoming: Identify log10 of IC50 associated with the compound COC[C@H]1OC(=O)/C(=C/N2CCC(C(=O)O)CC2)C2=C(O)C(=O)C3=C([C@H](OC(C)=O)C[C@]4(C)[C@@H](O)CC[C@@H]34)[C@]21C
Outgoing: 1.52

Incoming: Identify log10 of IC50 associated with the compound COC[C@H]1OC(=O)/C(=C/N2CCOCC2)C2=C(O)C(=O)C3=C([C@H](OC(C)=O)C[C@]4(C)[C@@H](O)CC[C@@H]34)[C@]21C
Outgoing: 1.57

Incoming: Identify log10 of IC50 associated with the compound COC[C@H]1OC(=O)/C(=C/N(C)C2CCN(C)C2)C2=C(O)C(=O)C3=C([C@H](OC(C)=O)C[C@]4(C)[C@@H](O)CC[C@@H]34)[C@]21C (some centres undefined)
Outgoing: 2.10

Incoming: Identify log10 of IC50 associated with the compound COC[C@H]1OC(=O)/C(=C/N2CCC(c3ccccc3)CC2)C2=C(O)C(=O)C3=C([C@H](OC(C)=O)C[C@]4(C)[C@@H](O)CC[C@@H]34)[C@]21C
Outgoing: 2.24

Incoming: Identify log10 of IC50 associated with the compound COC[C@H]1OC(=O)c2coc3c2[C@@]1(C)C1=C(C3=O)[C@@H]2CC[C@H](O)[C@@]2(C)C[C@H]1OC(C)=O
Outgoing: 0.43
